Biological target: mouse GDF-11 (mouse, UniProt Q9Z1W4 297-405, limits assumed)
Sequence (Q9Z1W4 297-405 limits assumed): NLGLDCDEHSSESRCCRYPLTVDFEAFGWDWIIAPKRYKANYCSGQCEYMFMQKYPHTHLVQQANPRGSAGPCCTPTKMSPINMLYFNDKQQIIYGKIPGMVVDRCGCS
Assay: plate binding assay, OD 450 nm, one antibody concentration that is not given, on Mu-GDF-11 (method not described in the text)
reported property: binding result

[
  {
    "binder": "Ab127 (antibody, human IgG4 S228P, kappa, V domains shown) VH: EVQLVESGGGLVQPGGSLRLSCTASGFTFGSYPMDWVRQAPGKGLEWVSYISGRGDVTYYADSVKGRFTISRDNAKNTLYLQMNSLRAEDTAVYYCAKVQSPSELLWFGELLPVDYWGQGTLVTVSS VL: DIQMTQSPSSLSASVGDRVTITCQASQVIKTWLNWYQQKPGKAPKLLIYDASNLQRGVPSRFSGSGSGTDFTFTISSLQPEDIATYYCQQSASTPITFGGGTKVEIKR",
    "binding result": "no binding"
  },
  {
    "binder": "Ab120 (antibody, human IgG4 S228P, kappa, V domains shown) VH: QVQLVQSGAEVKKPGASVKVSCKVSGGTFSTFHIHWVRQAPGKGLEWMGGISAYSGSTIYAQKFQGRVTMTEDTSTDTAYMELSSLKSEDTAVYYCARARYVDDAFDIWGQGTMVTVSS VL: DIQMTQSPSSVSASVGDRVTITCRASEDISNFLAWYQQKPGKAPKLLIYAASDLLSGVPSRFSGSGSGTDFTLTISSLQPEDFANYYCQKYISAPSFGGGTKVEIKR",
    "binding result": "no binding"
  },
  {
    "binder": "Ab112 (antibody, human IgG4 S228P, kappa, V domains shown) VH: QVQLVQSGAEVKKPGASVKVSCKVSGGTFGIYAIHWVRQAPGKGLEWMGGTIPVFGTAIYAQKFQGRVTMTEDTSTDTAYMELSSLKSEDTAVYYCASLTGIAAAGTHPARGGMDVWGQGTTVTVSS VL: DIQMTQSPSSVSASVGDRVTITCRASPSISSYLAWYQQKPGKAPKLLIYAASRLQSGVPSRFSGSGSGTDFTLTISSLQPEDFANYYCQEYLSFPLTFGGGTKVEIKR",
    "binding result": "no binding"
  },
  {
    "binder": "Ab115 (antibody, human IgG4 S228P, kappa, V domains shown) VH: QVQLVQSGAEVKKPGASVKVSCKVSGYAFTNYNIHWVRQAPGKGLEWMGGINPRTGGTIYAQKFQGRVTMTEDTSTDTAYMELSSLKSEDTAVYYCAKDIYTGVAVAGSGMDYWGQGTLVTVSS VL: DIQMTQSPSSVSASVGDRVTITCRASQGISTHLAWYQQKPGKAPKLLIYGASNLESGVPSRFSGSGSGTDFTLTISSLQPEDFANYYCQQANSFPWTFGGGTKVEIKR",
    "binding result": "no binding"
  },
  {
    "binder": "Ab113 (antibody, human IgG4 S228P, kappa, V domains shown) VH: QVQLVQSGAEVKKPGASVKVSCKVSGYLLTELSIHWVRQAPGKGLEWMGGIIPSFGTAIYAQKFQGRVTMTEDTSTDTAYMELSSLKSEDTAVYYCAISYSGFDLLPLDKWGQGTLVTVSS VL: DIQMTQSPSSVSASVGDRVTITCRASQHISTWLAWYQQKPGKAPKLLIYYASSLQGGVPSRFSGSGSGTDFTLTISSLQPEDFANYYCLQTYTYPRTFGGGTKVEIKR",
    "binding result": "no binding"
  },
  {
    "binder": "Ab114 (antibody, human IgG4 S228P, kappa, V domains shown) VH: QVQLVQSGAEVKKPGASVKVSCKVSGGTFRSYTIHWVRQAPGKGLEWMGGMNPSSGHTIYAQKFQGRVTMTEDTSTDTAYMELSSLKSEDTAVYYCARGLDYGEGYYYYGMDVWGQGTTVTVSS VL: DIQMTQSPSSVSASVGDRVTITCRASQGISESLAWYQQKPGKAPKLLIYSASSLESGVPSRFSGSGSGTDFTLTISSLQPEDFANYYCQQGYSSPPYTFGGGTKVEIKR",
    "binding result": "no binding"
  },
  {
    "binder": "Ab128 (antibody, human IgG4 S228P, kappa, V domains shown) VH: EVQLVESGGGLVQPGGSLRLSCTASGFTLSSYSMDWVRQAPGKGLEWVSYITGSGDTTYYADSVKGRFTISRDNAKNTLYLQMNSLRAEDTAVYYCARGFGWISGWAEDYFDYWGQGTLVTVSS VL: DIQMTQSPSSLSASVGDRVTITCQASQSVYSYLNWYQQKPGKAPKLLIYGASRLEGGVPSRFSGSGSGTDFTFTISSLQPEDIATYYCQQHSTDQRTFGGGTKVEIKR",
    "binding result": "no binding"
  },
  {
    "binder": "Ab117 (antibody, human IgG4 S228P, kappa, V domains shown) VH: QVQLVQSGAEVKKPGASVKVSCKVSGGTFSSHDIHWVRQAPGKGLEWMGGINPSDASTIYAQKFQGRVTMTEDTSTDTAYMELSSLKSEDTAVYYCARDLRGYSYGAETWHFQHWGQGTLVTVSS VL: DIQMTQSPSSVSASVGDRVTITCRASQYISNYLAWYQQKPGKAPKLLIYETSRLESGVPSRFSGSGSGTDFTLTISSLQPEDFANYYCQQTSSTPLTFGGGTKVEIKR",
    "binding result": "no binding"
  }
]

// binding result lookup, binder = Ab116 (antibody, human IgG4 S228P, kappa, V domains shown) VH: QVQLVQSGAEVKKPGASVKVSCKVSGFTFSRPAIHWVRQAPGKGLEWMGGINPNAATTIYAQKFQGRVTMTEDTSTDTAYMELSSLKSEDTAVYYCARGRLLREWELRPYDTWGQGTLVTVSS VL: DIQMTQSPSSVSASVGDRVTITCRASQSIGKSLAWYQQKPGKAPKLLIYSASNLRSGVPSRFSGSGSGTDFTLTISSLQPEDFANYYCQQYRDVPPITFGGGTKVEIKR , result: no binding

Documented binding result of Ab123 (antibody, human IgG4 S228P, kappa, V domains shown) VH: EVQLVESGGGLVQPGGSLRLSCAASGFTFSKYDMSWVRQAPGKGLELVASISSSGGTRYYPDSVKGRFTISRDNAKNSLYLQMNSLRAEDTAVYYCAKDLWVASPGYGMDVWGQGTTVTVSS VL: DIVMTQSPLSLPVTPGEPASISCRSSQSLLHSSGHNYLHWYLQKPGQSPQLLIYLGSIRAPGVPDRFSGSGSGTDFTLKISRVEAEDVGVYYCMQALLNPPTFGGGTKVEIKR : no binding
